Origin of values: patent US20260209362A1

Molecular target: T1, biotinylated recombinant mouse IL-12Rβ2 (mouse, UniProt P97378 24-637, random biotinylated)
T1 construct: Recombinant protein produced in-house; also called mIL-12RB2; mouse IL-12RB2
T1 sequence: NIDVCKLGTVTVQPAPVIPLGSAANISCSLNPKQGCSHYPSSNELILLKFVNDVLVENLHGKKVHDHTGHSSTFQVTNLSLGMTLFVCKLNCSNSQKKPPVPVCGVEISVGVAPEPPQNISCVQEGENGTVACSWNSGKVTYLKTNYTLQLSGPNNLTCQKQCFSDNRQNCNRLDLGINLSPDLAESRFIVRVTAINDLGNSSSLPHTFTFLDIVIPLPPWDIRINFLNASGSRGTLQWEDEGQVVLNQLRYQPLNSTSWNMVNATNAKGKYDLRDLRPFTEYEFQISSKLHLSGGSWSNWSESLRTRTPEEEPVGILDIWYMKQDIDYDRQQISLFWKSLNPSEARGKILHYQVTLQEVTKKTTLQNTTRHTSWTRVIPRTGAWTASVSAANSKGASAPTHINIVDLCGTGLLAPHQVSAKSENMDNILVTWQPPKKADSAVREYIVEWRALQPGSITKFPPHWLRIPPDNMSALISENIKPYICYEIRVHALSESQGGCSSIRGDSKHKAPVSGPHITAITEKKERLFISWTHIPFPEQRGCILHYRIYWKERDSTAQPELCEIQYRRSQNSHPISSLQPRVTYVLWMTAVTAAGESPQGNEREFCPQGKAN
Test: ELISA, P.E., biotinylated antigen
MEASUREMENT_KIND: ELISA mIL-12RB2/control
Please give only the number in your answer, with no unit.

**Q:** Note ELISA mIL-12RB2/control for the binder shown: anti-IL-12Rβ2 VHH clone 3CRH14 (clone ID 20374) (VHH, not shown: small tags and cut ends, periplasmic extract) VHH: QVQLQESGGGLVQPGGSLRLSCAASGFTFSTSGMHWFRQAPGKGLEWVSSIGIIVDSSYYADSVKGRFTISRDNAKNTLFLQMNSLKSEDTAVYYCSKDPTGSSRGQGTQVTVSS
**A:** 1.19

**Q:** Note ELISA mIL-12RB2/control for the binder shown: anti-IL-12Rβ2 VHH clone 3CAHS170 (clone ID 20406) (VHH, not shown: small tags and cut ends, periplasmic extract) VHH: QVQLQESGGGLVQAGGSLRLSCVASGRTFSSYAMGWFRQGPGKEREFVAAISWSGVSIYYADSVKGRFTISRDNAKNTVYLQMNSLEPEDTAVYYCAGTEGAYTVAGGSTFGYDMDYWGKGTQVTVSS
**A:** 0.945

**Q:** Note ELISA mIL-12RB2/control for the binder shown: anti-IL-12Rβ2 VHH clone 3CAHS43 (clone ID 20395) (VHH, not shown: small tags and cut ends, periplasmic extract) VHH: QVQLQESGGGSVQAGGSLRLSCAASGRTINAYIMGWFRQAPGKEREFVAAVSGSGGSTYYADSVKGRFTISRDNAKNTVNLQMDNLRSEDTDVYYCAATYESVYLRNPGQYDYWGQGTQVTVSS
**A:** 1.31

**Q:** Note ELISA mIL-12RB2/control for the binder shown: anti-IL-12Rβ2 VHH clone 3CRHS106 (clone ID 20429) (VHH, not shown: small tags and cut ends, periplasmic extract) VHH: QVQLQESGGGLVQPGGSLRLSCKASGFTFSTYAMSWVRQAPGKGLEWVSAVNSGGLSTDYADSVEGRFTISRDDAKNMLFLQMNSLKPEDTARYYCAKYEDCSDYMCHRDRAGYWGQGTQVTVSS
**A:** 1.03
